// provenance: patent US20140057857A1

Each record here notes measured IC50.
tested.target: T1, GST-MDM2 containing full-length human MDM2 (human, UniProt Q00987 1-491)
T1 construct: mature; 'mature' stands for full-length; not shown: GST tag
T1 sequence (Q00987 whole entry): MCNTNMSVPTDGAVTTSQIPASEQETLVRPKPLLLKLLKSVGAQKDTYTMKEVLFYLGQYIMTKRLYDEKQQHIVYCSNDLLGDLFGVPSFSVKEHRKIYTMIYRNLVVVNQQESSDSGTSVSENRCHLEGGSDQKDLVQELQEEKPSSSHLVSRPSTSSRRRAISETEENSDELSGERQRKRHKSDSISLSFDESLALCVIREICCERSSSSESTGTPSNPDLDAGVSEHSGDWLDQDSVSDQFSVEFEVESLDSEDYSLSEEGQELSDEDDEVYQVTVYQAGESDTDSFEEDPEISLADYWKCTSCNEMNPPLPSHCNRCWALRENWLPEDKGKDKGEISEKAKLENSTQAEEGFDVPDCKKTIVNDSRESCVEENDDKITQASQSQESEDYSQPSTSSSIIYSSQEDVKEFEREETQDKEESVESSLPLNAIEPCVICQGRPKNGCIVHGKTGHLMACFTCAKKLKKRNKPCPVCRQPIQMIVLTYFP
test.description: competition ELISA: peptide inhibits GST-MDM2 binding to coated His6-p53
Numbered stars: 1 amine (or outer) side, 2 acyl side, 3 side chain; on linkers, the order of the positions; unused ones are H or OH. Bridge positions count the residues as written; N and C are the ends. Square brackets hold non-standard residues; d marks the D form. CH2(3,3'-bipyridine-6,6')CH2 = c1cc(C[*:1])ncc1-c1ccc(C[*:2])nc1; Biphenyl(4,4'-CH2)2 = c1cc(-c2ccc(C[*:2])cc2)ccc1C[*:1]
Please respond with the number in nM and leave the unit unwritten.

Field: example entries. Status: answers known.
INSERT INTO results (binder, unit_name, experimental_value) VALUES
  ('Ac-LTF[dC]HYWAQLCS-NH2 (linker 4-11 via CH2(3,3''-bipyridine-6,6'')CH2; SMILES CC(=O)N[C@@H](CC(C)C)C(=O)N[C@H](C(=O)N[C@@H](Cc1ccccc1)C(=O)N[C@@H]1CSCc2ccc(cn2)-c2ccc(nc2)CSC[C@@H](C(=O)N[C@@H](CO)C(N)=O)NC(=O)[C@H](CC(C)C)NC(=O)[C@H](CCC(N)=O)NC(=O)[C@H](C)NC(=O)[C@H](Cc2c[nH]c3ccccc23)NC(=O)[C@H](Cc2ccc(O)cc2)NC(=O)[C@H](Cc2c[nH]cn2)NC1=O)[C@@H](C)O, Printed as LTFc"HYWAQLC"S) [PDI analog 3b (Bpy cross-linked D,L-dicysteine peptide)]', 'nM', 5.4),
  ('Ac-LTFCRYWARLCS-NH2 (linker 4-11 via Biphenyl(4,4''-CH2)2, Printed as LTFC''RYWARLC''S) [PDI analog 2a (Bph cross-linked, two arginines)]', 'nM', 244);

Now let's try a different one.
Form field: reported IC50 of Ac-LTFCHYWAQLCS-NH2 (linker 4-11 via CH2(3,3'-bipyridine-6,6')CH2; SMILES CC(=O)N[C@@H](CC(C)C)C(=O)N[C@H](C(=O)N[C@@H](Cc1ccccc1)C(=O)N[C@H]1CSCc2ccc(cn2)-c2ccc(nc2)CSC[C@@H](C(=O)N[C@@H](CO)C(N)=O)NC(=O)[C@H](CC(C)C)NC(=O)[C@H](CCC(N)=O)NC(=O)[C@H](C)NC(=O)[C@H](Cc2c[nH]c3ccccc23)NC(=O)[C@H](Cc2ccc(O)cc2)NC(=O)[C@H](Cc2c[nH]cn2)NC1=O)[C@@H](C)O, Printed as LTFC"HYWAQLC"S (C" = Bpy-linked cysteine)) [PDI analog 1b (Bpy cross-linked L,L-dicysteine peptide)]
35
